Experimental target: Human immunodeficiency virus type 1 reverse transcriptase (Human immunodeficiency virus 1, UniProt Q72547, V179D)
Assay protocol: Inhibition of HIV1 free reverse transcriptase V179D mutant
Reported metric: Ki (nM)
Field format: number, assumed nM, no unit text.

> print(dat)
                                   molecule  observed.value
1  CCC1(c2ccc(CSc3ccccc3)cc2)Oc2ccccc2-n2cccc2C1=O (single isomer, unassigned; (+))             780

CCC1(c2ccc(CSc3ccc(Br)cc3)cc2)Oc2ccccc2-n2cccc2C1=O (single isomer, unassigned; (+)) has a reported Ki of 620

# Ki (molecule: CCC1(c2ccc(CSc3ccc(F)cc3Cl)cc2)Oc2ccccc2-n2cccc2C1=O (single isomer, unassigned; (+)) ) is 140

---

This listing pairs compounds with measured Ki.
Experimental target: Human immunodeficiency virus type 1 reverse transcriptase (Human immunodeficiency virus 1, UniProt Q72547, L100I)
Assay protocol: Inhibition of HIV1 reverse transcriptase L100I mutant/poly(rA)/oligo(dT) DNA/dTTP ternary complex
Reply numerically in nM, unit not repeated.

Would you please look over these solved cases?
> print(dat)
                                   compound  reported.metric  observed.value
1  CCC1(c2ccc(CSc3ccccc3)cc2)Oc2ccccc2-n2cccc2C1=O (single isomer, unassigned; (+))               Ki             510
2  CCC1(c2ccc(CSc3ccc(F)cc3Cl)cc2)Oc2ccccc2-n2cccc2C1=O (single isomer, unassigned; (+))               Ki             150

Now take the following compound into account.
The measured Ki associated with CCC1(c2ccc(CSc3ccc(Br)cc3)cc2)Oc2ccccc2-n2cccc2C1=O (single isomer, unassigned; (+)) reads 30

---

Experimental target: Human immunodeficiency virus type 1 reverse transcriptase (Human immunodeficiency virus 1, UniProt Q72547, V179D)
Assay protocol: Inhibition of HIV1 reverse transcriptase V179D mutant/poly(rA)/oligo(dT) DNA binary complex
# reported Ki; entries follow
Answer by giving the amount and then stating its unit.

# count of solved cases: 2
> print(dat)
                                   compound  reported.metric  observed.value
1  CCC1(c2ccc(CSc3ccccc3)cc2)Oc2ccccc2-n2cccc2C1=O (single isomer, unassigned; (+))               Ki          780 nM
2  CCC1(c2ccc(CSc3ccc(F)cc3Cl)cc2)Oc2ccccc2-n2cccc2C1=O (single isomer, unassigned; (+))               Ki          140 nM

For the next question, use this compound.
Ki reading for CCC1(c2ccc(CSc3ccc(Br)cc3)cc2)Oc2ccccc2-n2cccc2C1=O (single isomer, unassigned; (+)) : 620 nM

---

Ki values by entry
Experimental target: Human immunodeficiency virus type 1 reverse transcriptase (Human immunodeficiency virus 1, UniProt Q72547, K103N)
Assay protocol: Inhibition of HIV1 free reverse transcriptase K103N mutant
# number only, unit nM dropped from output

Known Ki results, listed for orientation:
> print(dat)
                                   compound  observed.value
1  CCC1(c2ccc(CSc3ccc(Br)cc3)cc2)Oc2ccccc2-n2cccc2C1=O (single isomer, unassigned; (+))            2210
2  CCC1(c2ccc(CSc3ccc(F)cc3Cl)cc2)Oc2ccccc2-n2cccc2C1=O (single isomer, unassigned; (+))             510

Moving on to another compound below.
Per the records, this compound ( CCC1(c2ccc(CSc3ccccc3)cc2)Oc2ccccc2-n2cccc2C1=O (single isomer, unassigned; (+)) ) has Ki equal to 1350

---

Experimental target: UniProt Q72547
Reported metric: pIC50
Expect pIC50 as a plain number equal to -log10 of the molar concentration.

Past entries and their recorded results:
> print(dat)
                                   compound  experimental.target  observed.value
1  CCC1(c2ccc(CSc3ccccc3)cc2)Oc2ccccc2-n2cccc2C1=O (racemic)       UniProt Q72547            7.22
2  CCC1(c2ccc(CSc3c(Cl)cccc3Cl)cc2)Oc2ccccc2-n2cccc2C1=O (racemic)       UniProt Q72547            5.13
3  CCC1(c2ccc(CSc3ccc(F)cc3)cc2)Oc2ccccc2-n2cccc2C1=O (racemic)       UniProt Q72547            6.60

The reported pIC50 of the compound CCC1(c2ccc(CSc3ccc(F)cc3Cl)cc2)Oc2ccccc2-n2cccc2C1=O (racemic) was 6.21

Entry CCC1(c2ccc(COc3cccc(Cl)c3)cc2)Oc2ccccc2-n2cccc2C1=O (racemic) ; pIC50 = 7.00

compound CCC1(c2ccc(COc3ccccc3)cc2)Oc2ccccc2-n2cccc2C1=O (racemic) , pIC50 observed: 6.82

Item: CCC1(c2ccc(CSc3ccc(Br)cc3)cc2)Oc2ccccc2-n2cccc2C1=O (racemic) | pIC50: 7.22

---

Property: pKi; scope: individual compounds
Experimental target: Human immunodeficiency virus type 1 reverse transcriptase (Human immunodeficiency virus 1, UniProt Q72547, K103N)
Assay protocol: Inhibition of HIV1 reverse transcriptase K103N mutant/poly(rA)/oligo(dT) DNA/dTTP ternary complex
In textbook form, pKi equals minus log to base ten of the concentration in mol/L.

In the examples that follow, each entry is paired with its recorded pKi.
> print(dat)
                                   compound  reported.metric  observed.value
1  CCC1(c2ccc(CSc3ccccc3)cc2)Oc2ccccc2-n2cccc2C1=O (single isomer, unassigned; (+))              pKi            6.11
2  CCC1(c2ccc(CSc3ccc(F)cc3Cl)cc2)Oc2ccccc2-n2cccc2C1=O (single isomer, unassigned; (+))              pKi            7.70

Given item CCC1(c2ccc(CSc3ccc(Br)cc3)cc2)Oc2ccccc2-n2cccc2C1=O (single isomer, unassigned; (+)) , the value recorded as its pKi is 5.98

---

Below, each entry is listed with its recorded IC50.
Experimental target: Human immunodeficiency virus type 1 reverse transcriptase (Human immunodeficiency virus 1, UniProt Q72547, V179D)
Assay protocol: Inhibition of HIV1 reverse transcriptase V179D mutant
A number alone suffices; assume nM.

These recorded examples may help you get a feel for the data.
> print(dat)
                                   compound  observed.value
1  CCC1(c2ccc(CSc3ccccc3)cc2)Oc2ccccc2-n2cccc2C1=O (racemic)             150
2  CCC1(c2ccc(COc3cccc(Cl)c3)cc2)Oc2ccccc2-n2cccc2C1=O (racemic)             300

The recorded IC50 for entry CCC1(c2ccc(CSc3ccc(Br)cc3)cc2)Oc2ccccc2-n2cccc2C1=O (racemic) equals 290

---

Experimental target: Human immunodeficiency virus type 1 reverse transcriptase (Human immunodeficiency virus 1, UniProt Q72547, K103N)
Assay protocol: Inhibition of HIV1 reverse transcriptase K103N mutant
Recorded log10(IC50) for the following compounds
Hello, just confirming the data are log10 of IC50 with units of nM.

> print(dat)
                                   compound  observed.value
1  CCC1(c2ccc(COc3cccc(Cl)c3)cc2)Oc2ccccc2-n2cccc2C1=O (racemic)            2.48
2  CCC1(c2ccc(CSc3ccc(F)cc3Cl)cc2)Oc2ccccc2-n2cccc2C1=O (racemic)            4.31
3  CCC1(c2ccc(CSc3ccc(F)cc3)cc2)Oc2ccccc2-n2cccc2C1=O (racemic)            3.53
4  CCC1(c2ccc(COc3ccccc3)cc2)Oc2ccccc2-n2cccc2C1=O (racemic)            2.60
5  CCC1(c2ccc(CSc3ccccc3)cc2)Oc2ccccc2-n2cccc2C1=O (racemic)            2.40

Could you now look at the following compound, please?
Memo: CCC1(c2ccc(CSc3ccc(Br)cc3)cc2)Oc2ccccc2-n2cccc2C1=O (racemic) , reported log10(IC50): 3.06

---

Experimental target: Human immunodeficiency virus type 1 reverse transcriptase (Human immunodeficiency virus 1, UniProt Q72547, L100I)
Assay protocol: Inhibition of HIV1 reverse transcriptase L100I mutant
Reported metric: IC50

> print(dat)
                                   compound  reported.metric  observed.value
1  CCC1(c2ccc(COc3ccccc3)cc2)Oc2ccccc2-n2cccc2C1=O (racemic)             IC50          200 nM
2  CCC1(c2ccc(COc3cccc(Cl)c3)cc2)Oc2ccccc2-n2cccc2C1=O (racemic)             IC50          250 nM
3  CCC1(c2ccc(CSc3ccccc3)cc2)Oc2ccccc2-n2cccc2C1=O (racemic)             IC50          990 nM

Entry under test: CCC1(c2ccc(CSc3ccc(F)cc3)cc2)Oc2ccccc2-n2cccc2C1=O (racemic) . Its IC50 was > 400000 nM

What the record says about CCC1(c2ccc(CSc3ccc(F)cc3Cl)cc2)Oc2ccccc2-n2cccc2C1=O (racemic) : IC50 is > 400000 nM

// CCC1(c2ccc(CSc3c(Cl)cccc3Cl)cc2)Oc2ccccc2-n2cccc2C1=O (racemic) : IC50 value = > 400000 nM

Data point: CCC1(c2ccc(CSc3ccc(Br)cc3)cc2)Oc2ccccc2-n2cccc2C1=O (racemic) ; IC50 = > 400000 nM
